Examples of compounds with documented TGI follow.
System: SN12C renal
Assay: NCI tumour cell line growth inhibition, 48 h

CC(C)OC(=O)C1(C(C)C)CCc2ccc(C(=O)CCC(=O)O)cc21 (centres undefined)
> 100 µM
CN(c1ccccc1)c1nc(=[N+]2CCCC2)ss1
> 100 µM

Exercise: I would be grateful if you could share the reported TGI for `N#Cc1c(N)nc(SCc2ccccc2)c(C#N)c1-c1ccc(O)cc1` .
Solution: 33.4 µM

Exercise: For C=C1C2CC3CCC2C(OC(=O)c2ccccc2C(=O)O)C13 (centres undefined) then?
Solution: > 100 µM

Exercise: For `COc1ccc2c(C)cc(N/N=C/c3ccc(C)s3)nc2c1` then?
Solution: 37.3 µM

Exercise: For `O=C1C(c2c(O)[nH]c3ccc(Cl)cc23)=Nc2ccccc21` then?
Solution: > 100 µM

Exercise: For COc1ccc(/C=C\c2cc(OC)c(OC)c(OC)c2)cc1OC(=O)CC(N)C(=O)O (centres undefined) then?
Solution: > 100 µM

* * *

Examples of compounds with documented TGI follow.
Tested on: TK-10 renal
Experiment: NCI tumour cell line growth inhibition, 48 h
The answer is to be given in µM; state only the numeric part.

N#C/C(=C\c1ccc([N+](=O)[O-])o1)c1n[nH]c(Cc2ccccc2)n1
4.15
C[C@]12Cc3conc3C(O)=C1CC[C@@H]1C2CC[C@@]2(C)C1CC[C@]2(C)O (stereo not given in full)
71.9

Now turn to the next compound.
Exercise: I would be grateful if you could share the reported TGI for `c1ccc(C2=NN=C3C(c4ccccc4)=Nc4ccccc4N3C2)cc1` .
Solution: 43.4

* * *

Tested on: SF-539 CNS
Experiment: NCI tumour cell line growth inhibition, 48 h
Examples of molecules with documented TGI follow.

c1ccc2c(c1)SCCc1cn[nH]c1-2
> 100 µM
O=C(Cn1c2c(c3ccccc31)CCCC2)N1CCCCC1
> 100 µM
C[C@H](c1ccccc1)n1c(N)c(-c2nc3ccccc3s2)c2ccc([N+](=O)[O-])cc2c1=O
54 µM
CCC[n+]1cc2cc3c(cc2c2c1-c1cc4c(cc1C2)OCO4)OCO3 (tested in a mixture with another compound)
2.88 µM
CCOC(=O)[C@@H]1ON2O[C@@H](OC3CCCCC3c3ccccc3)C[C@H]3OC(=O)[C@@H]1C32 (stereo partly specified)
> 100 µM
CC(C)c1[nH]nc2c(NCc3ccc(-c4ccccn4)cc3)nc(SCCN(C)C)nc12
0.242 µM

Exercise: I would be grateful if you could share the reported TGI for `COc1c(B(O)O)cccc1-c1nc2ccc3[nH]ncc3c2c2c1CCCC2` .
Solution: 2.81 µM

Exercise: For `c1ccc(C2=NN=C3C(c4ccccc4)=Nc4ccccc4N3C2)cc1` then?
Solution: > 100 µM

Exercise: For `Cc1cc(S(=O)(=O)NC2=NCCCN2)c(S)cc1Cl` then?
Solution: > 100 µM

Exercise: For `Cc1cc(-c2nc3n(c2/C=N/N=C(N)N)CCS3)c(C)s1` then?
Solution: 31.3 µM

Exercise: For `O=c1cc(-c2ccccc2)oc2cc(OCCCCCN3CCOCC3)cc(O)c12` then?
Solution: > 100 µM

Exercise: For `CCN(CC)S(=O)(=O)c1cccc(-c2ccc3c(NC(=O)C4CC4)n[nH]c3c2)c1` then?
Solution: 5.6 µM

Exercise: For `C=C1C(=O)O[C@@H]2CC(CO)=C([C@@H](C)CCCO)[C@@H](OC(=O)/C(C)=C\C)[C@H]12` then?
Solution: > 71.3 µM

Exercise: For `COc1cc2c3c(n([C@@H]4CCOC4)c(=O)c2cc1OC)-c1cc2c(cc1C3=O)OCO2` then?
Solution: 0.0208 µM

Exercise: For `CCCCSc1nc(N)c2cn[nH]c2n1` then?
Solution: 39.1 µM

Exercise: For Cc1ccnc2c(NC(C)CCCN)cc(O)c(O)c12 (stereo unspecified) then?
Solution: 41.9 µM

Exercise: For CC1(C2COC(=O)C2)SCCCS1 (stereo unspecified) then?
Solution: > 100 µM

Exercise: For `CCCCCN(CCCCC)C(=O)[C@H](CCC(=O)O)NC(=O)c1cc2ccccc2[nH]1` then?
Solution: > 100 µM

Exercise: For C[C@]12Cc3conc3C(O)=C1CC[C@@H]1C2CC[C@@]2(C)C1CC[C@]2(C)O (stereo partly specified) then?
Solution: 60.6 µM

Exercise: For `CC(C)(C)n1c(=O)n(-c2ccccc2)n(C(C)(C)C)c1=O` then?
Solution: > 100 µM

Exercise: For CN(C(=S)Cc1ccc(Cl)c(Cl)c1)C1CCCC[C@@H]1N1CCCC1 (stereo partly specified) then?
Solution: > 100 µM

Exercise: For `O=C1C(Cl)=C(Nc2cc(Cl)ccc2O)C(=O)N1Cc1ccccc1` then?
Solution: 36.3 µM

Exercise: For C=C(C)C1CCC2=CC(CC3(C)OC3C3=CC(C(=O)OC)=C(C1)O3)OC2=O (stereo unspecified) then?
Solution: > 100 µM

Exercise: For `CSc1ncc2c(C#N)c3[nH]c4ccccc4n3c(=O)c2n1` then?
Solution: > 100 µM

Exercise: For `COC(=O)c1ccc(C(=O)OC)c2nc3cc(Cl)ccc3nc12` then?
Solution: > 100 µM

Exercise: For `O=C(NCc1ccco1)C1CCN(S(=O)(=O)c2ccc(Cl)cc2)CC1` then?
Solution: > 100 µM

* * *

Examples of compounds with documented TGI follow.
System: RPMI-8226 leukemia
Assay: NCI tumour cell line growth inhibition, 48 h
The answer is to be given in µM; state only the numeric part.

Worked examples follow.
CC(C)(C)C1=CC(=C2C=Cc3cc(O)ccc3O2)C=C(C(C)(C)C)C1=O
4.21
C=CC(=O)Nc1ccccc1CC(c1c[nH]c2ccccc12)c1c[nH]c2ccccc12
50.5
CSc1ncc2c(C#N)c3[nH]c4ccccc4n3c(=O)c2n1
12.3

Exercise: I would be grateful if you could share the reported TGI for `Cc1nc2c(O)c3c(c(O)c2nc1C)C1C=CC3CC1` .
Solution: 15.4

Exercise: For CCC[n+]1cc2cc3c(cc2c2c1-c1cc4c(cc1C2)OCO4)OCO3 (tested in a mixture with another compound) then?
Solution: 5.5

Exercise: For `COc1c(B(O)O)cccc1-c1nc2ccc3[nH]ncc3c2c2c1CCCC2` then?
Solution: 7.01

Exercise: For `N#Cc1c(N)nc(SCc2ccccc2)c(C#N)c1-c1ccc(O)cc1` then?
Solution: 29.8

Exercise: For `COc1cc2c(NC3CCN(C(C)C)CC3)nc(C3CCCCC3)nc2cc1OCCCN1CCCC1` then?
Solution: 7.75

* * *

Examples of compounds with documented TGI follow.
Test system: XF 498 CNS
Assay: NCI tumour cell line growth inhibition, 48 h

Worked examples follow.
C=CC(=O)Nc1ccccc1CC(c1c[nH]c2ccccc12)c1c[nH]c2ccccc12
42.3 µM
CC(C)N1C(C)[C@@H](c2ccccc2)O[P@@]1(=O)CC1=CCCCC1 (stereo partly drawn)
> 100 µM

Now turn to the next compound.
Exercise: I would be grateful if you could share the reported TGI for `c1ccc2c(c1)SCCc1cn[nH]c1-2` .
Solution: > 100 µM

* * *

Test system: UO-31 renal
Experiment: NCI tumour cell line growth inhibition, 48 h
Examples of molecules with documented TGI follow.

NNC(=O)CCc1ccc2ccc3ccccc3c2c1
> 100 µM
O=S(O)CCCSSSCCCS(=O)O
> 100 µM

Exercise: I would be grateful if you could share the reported TGI for CC1CC(=NC2CCCCC2)Nc2ccccc2N1Cc1ccccc1 (configuration not stated) .
Solution: 13.3 µM

Exercise: For `Cc1cc(N(CCC#N)CCC#N)ccc1/C=C(\NC(=O)/C=C/c1ccccc1)C(=O)Nc1ccc(Cl)cc1` then?
Solution: > 100 µM

Exercise: For COc1ccc(C(OCC2OC3(COC(c4ccccc4)(c4ccc(OC)cc4)c4ccc(OC)cc4)C(Oc4nc(=O)ccn43)C2O)(c2ccccc2)c2ccc(OC)cc2)cc1 (configuration not stated) then?
Solution: > 100 µM

Exercise: For CN(C(=S)Cc1ccc(Cl)c(Cl)c1)C1CCCC[C@@H]1N1CCCC1 (some centres not stated) then?
Solution: 48.8 µM

Exercise: For `COC(=O)c1ccc(C(=O)OC)c2nc3cc(Cl)ccc3nc12` then?
Solution: > 100 µM

* * *

System: IGROV1 ovarian
Test: NCI tumour cell line growth inhibition, 48 h; in the data active = GI50 below about 0.43 µM; inactive = the rest
The reply should name one outcome from active, inactive

Record excerpt, results attached:
COc1cc2c3c(n([C@@H]4CCOC4)c(=O)c2cc1OC)-c1cc2c(cc1C3=O)OCO2
active
C(=C\c1ccncc1)/c1ccncc1
inactive
O=C(N=Nc1c(Cl)c(O)c2ccccc2c1O)C(=O)Nc1cccc(C(F)(F)F)c1
inactive

Exercise: Any idea what this test logged for CC(=O)[CH-]C(=O)c1ccccc1.CC(=O)[CH-]C(=O)c1ccccc1.CC[C@H](/C=C/C(C)[C@H]1CCC2[C@@H]3CC=C4C[C@@H]([O-])CC[C@]4(C)C3CC[C@@]21C)C(C)C.CC[C@H](/C=C/C(C)[C@H]1CCC2[C@@H]3CC=C4C[C@@H]([O-])CC[C@]4(C)C3CC[C@@]21C)C(C)C.Cl.[Ti+4] (stereo partly specified) ?
Solution: inactive

Exercise: For `O=C(CSC(c1ccccc1)c1ccccc1)N/N=C/c1ccccc1Cl` then?
Solution: inactive

Exercise: For Cc1ccnc2c(NC(C)CCCN)cc(O)c(O)c12 (stereo unspecified) then?
Solution: inactive
